Test system: MFM-223
METHOD_SUMMARY: normalised viability (% of control), CellTiter-Blue; higher = more viable cells (100 = DMSO, 0 = benzethonium chloride kill control)
APPLIED_CONDITIONS: incubation time: 72 h
Listed next: entries and their corresponding normalised viability.
Expressed in %, but write only the number.

Study these solved cases before continuing.
{"MOLECULE": "Nc1nc(Cl)nc2c1ncn2[C@@H]1O[C@H](CO)[C@@H](O)[C@@H]1F [Clofarabine] (1 nM)", "MEASURE": "normalised viability", "REPORTED": 93}
{"MOLECULE": "CC(C)C(=O)Nc1ccc([N+](=O)[O-])c(C(F)(F)F)c1 [Flutamide] (1 nM)", "MEASURE": "normalised viability", "REPORTED": 90.4}
{"MOLECULE": "Cn1nnc2c(C(N)=O)ncn2c1=O [Temozolomide] (1 nM)", "MEASURE": "normalised viability", "REPORTED": 102}

Given the entry NC(=O)c1cccc2cn(-c3ccc([C@@H]4CCCNC4)cc3)nc12 [MK-4827] (1 nM) , what normalised viability was observed with MFM-223?
92.2
